# Test system: T-24
# assay notes: Cytotoxicity against human T24 cells assessed as inhibition of cell growth incubated for 48 hrs by CCK-8 assay
# Assay type: functional, cell-based
# experimental parameters: T-24, 48 h
assay endpoint: IC50 (µM)
Kindly provide the numeric value in µM only, without the unit symbol.

| compound | IC50 / µM |
| --- | --- |
| CC(C)C[C@H](N)C(=O)O[C@H]1CC[C@@]2(C)C(=CC[C@H]3[C@@H]4C[C@@H]5O[C@]6(CC[C@@H](C)CO6)[C@@H](C)[C@@H]5[C@@]4(C)CC[C@@H]32)C1 | 8.83 |

Exercise: Look up IC50: CC(=O)O[C@H]1CC[C@@]2(C)C(=CC[C@H]3[C@@H]4C[C@@H]5O[C@H](CC[C@@H](C)COC(=O)[C@@H](N)Cc6ccccc6)[C@@H](C)[C@@H]5[C@@]4(C)CC[C@@H]32)C1
Key: 8.22

Exercise: Record request: IC50 value, item C[C@@H]1CC[C@@]2(OC1)O[C@H]1C[C@H]3[C@@H]4CC=C5C[C@@H](OC(=O)CN)CC[C@]5(C)[C@H]4CC[C@]3(C)[C@H]1[C@@H]2C [GLYCINE DIOSGENYL ESTER]
Key: 9.98

Exercise: Fill in the blank: the reported IC50 of CC(=O)O[C@H]1CC[C@@]2(C)C(=CC[C@H]3[C@@H]4C[C@@H]5O[C@H](CC[C@@H](C)COC(=O)[C@@H]6CCCN6)[C@@H](C)[C@@H]5[C@@]4(C)CC[C@@H]32)C1 is ____.
Key: 12.2

From: ChEMBL document CHEMBL4813993
